Listing of entries alongside the reported cytotoxicity at 70.5 h.
Assay: Human HepG2 cell viability assay in 384 well format
Type: toxicity, cell-based
Set-up: dose 125 nL, time 70.5 hour; concentration not given beside the values
Conditions: HepG2 cells, read-out: Inhibition

- molecule: "CCN(Cc1cccc(F)c1)S(=O)(=O)N1CCOCC1"
  cytotoxicity at 70.5 h / %: 0.239
- molecule: "Cc1ccc(NC(=O)c2ccc(=O)n(CC(=O)NC3CCCC3)n2)cc1"
  cytotoxicity at 70.5 h / %: 4.71
- molecule: "COc1ccc(CNC(=O)CNc2cc3c(cc2Cl)OCCCO3)cc1"
  cytotoxicity at 70.5 h / %: -5.19
- molecule: "CSCCCN1CCn2nc(CNC(C)=O)cc2C1"
  cytotoxicity at 70.5 h / %: 14.2
- molecule: "Cc1ccc(N2CCCc3sc(C(=O)NCc4ccc(C)o4)nc32)nn1"
  cytotoxicity at 70.5 h / %: -6.21
- molecule: "CC(O)CNc1ccc(C#N)cc1C(F)(F)F (stereo not drawn)"
  cytotoxicity at 70.5 h / %: -12.9
- molecule: "c1cnc(NC[C@@H]2CCC[C@@H]3CN(Cc4cccnc4)C[C@@H]32)nc1"
  cytotoxicity at 70.5 h / %: -2.09
- molecule: "CCc1c(C)nc2cc(C3CCN(Cc4cccc(F)c4)C3)nn2c1O (stereo not drawn)"
  cytotoxicity at 70.5 h / %: -7.92
- molecule: "COCCCNC(=O)CN1CCC(N2CCN(C)C2=O)CC1"
  cytotoxicity at 70.5 h / %: -10.4
- molecule: "COc1cccc(CC(=O)N2CC[C@@H]3NC(=O)CC[C@@H]32)c1"
  cytotoxicity at 70.5 h / %: -0.893
- molecule: "c1ccc(OCc2cscn2)c(CNC2CCc3ncnn3C2)c1 (stereo not drawn)"
  cytotoxicity at 70.5 h / %: -4.78
- molecule: "Cn1cccc1C(=O)NCc1cnc2n1CCN(CC1CC1)C2"
  cytotoxicity at 70.5 h / %: 3.59
- molecule: "Cc1nc(N2CCCC2)nc2c1CCN(C(=O)C1CCCC1)CC2"
  cytotoxicity at 70.5 h / %: -9.52
- molecule: "CS(=O)(=O)Cc1nc(CNc2c(F)cc(F)cc2F)cs1"
  cytotoxicity at 70.5 h / %: -2.82
- molecule: "O=C(c1ccon1)N1CCc2ncnc(NCc3ccccn3)c2CC1"
  cytotoxicity at 70.5 h / %: 0.424
- molecule: "Cc1cnc(C(=O)N[C@H]2CN(CCS(C)(=O)=O)C[C@@H]2C2CC2)cn1"
  cytotoxicity at 70.5 h / %: 12.4
- molecule: "CCOc1cc(C(=O)N(C)C)ccc1NC(=O)c1ccsc1"
  cytotoxicity at 70.5 h / %: -9.1
- molecule: "COc1cccc(N2CCN(C(=O)c3noc4c3CCCCC4)CC2)c1"
  cytotoxicity at 70.5 h / %: -4.22

====

Assay: Human HepG2 cell viability assay in 384 well format
Assay type: toxicity, cell-based
Set-up: dose 125 nL, time 70.5 hour; concentration not given beside the values
Settings: HepG2 cells, read-out: Inhibition
Listing of entries alongside the reported cytotoxicity at 70.5 h.

- compound: "COC(=O)c1cccc(CN(C)C(C)c2ccccn2)c1 (stereo unspecified)"
  cytotoxicity at 70.5 h / %: -24.9
- compound: "CC(C)C(=O)NC1COC2(CCN(C(=O)c3ccc[nH]3)CC2)C1 (stereo unspecified)"
  cytotoxicity at 70.5 h / %: -7.92
- compound: "Cc1csc(CNC(=O)N(C)Cc2nnc3n2CCC3)n1"
  cytotoxicity at 70.5 h / %: -12.1
- compound: "CC(CNC(=O)Nc1cn[nH]c1)N1CCCC1 (stereo unspecified)"
  cytotoxicity at 70.5 h / %: 2.24
- compound: "COc1cc(CCC(=O)N2CCC(c3cc4nccnc4[nH]3)CC2)on1"
  cytotoxicity at 70.5 h / %: 28.5
- compound: "c1cc2c(cc1Cn1cc(C3CCOC3)nn1)CCCO2 (stereo unspecified)"
  cytotoxicity at 70.5 h / %: -13.2
- compound: "O=C1COC2(CCN(Cc3ccsc3)CC2)CN1"
  cytotoxicity at 70.5 h / %: -4.53
- compound: "COCC(=O)N1C[C@@H]2CCCO[C@@H]2[C@H](N(C)Cc2ccco2)C1"
  cytotoxicity at 70.5 h / %: -3.25
- compound: "CC(Nc1ccc(C(F)(F)F)cc1C#N)c1cccc(S(N)(=O)=O)c1 (stereo unspecified)"
  cytotoxicity at 70.5 h / %: 9.79
- compound: "CCCn1ncc2c(C(=O)NC(C)Cn3cccn3)cc(C3CC3)nc21 (stereo unspecified)"
  cytotoxicity at 70.5 h / %: -13.1
- compound: "COCCN1CCN(C(=O)c2cc(C(C)C)on2)[C@H]2CS(=O)(=O)C[C@H]21"
  cytotoxicity at 70.5 h / %: 2.11

The origin of these recorded values is ChEMBL document CHEMBL3507680.
